Measured values drawn from patent US9169254B2 for this set.

Each entry below lists one item and its recorded cAMP production activity (%) value.
# targetOfAssay: UniProtKB Q03431
# experimentalDetails: In vitro cAMP signal activity in HKRK-B7 cells (LLC-PK1 cells overexpressing the human PTH1 receptor)
# Format: cell-based
# details: HKRK-B7 cells; compound at 1×10^−3 M; cAMP produced as percentage of that produced by hPTH(1-34) at 100 nM

[
  {
    "compound": "Cc1cc(N2C(=O)CNC2=O)ccc1CCS(=O)(=O)N1CCC2(CC1)N=C(C1CCC(C)CC1)NC2=O (centres unmarked)",
    "cAMP production activity (%)": 48
  },
  {
    "compound": "Cc1cc(C(=O)N2CCC(OC[C@H](O)CO)CC2)cc(C)c1/C=C/S(=O)(=O)N1CCC2(CC1)N=C(C1CCC(CCC(F)(F)F)CC1)NC2=O (some centres unmarked)",
    "cAMP production activity (%)": 64
  },
  {
    "compound": "CC(=O)Nc1ccc(CCS(=O)(=O)N2CCC3(CC2)N=C(C2CCC(C(F)F)CC2)NC3=O)c(C)c1 (centres unmarked)",
    "cAMP production activity (%)": 69
  },
  {
    "compound": "Cc1cc(C(=O)N2CCC(O)(CF)CC2)cc(C)c1/C=C/S(=O)(=O)N1CCC2(CC1)N=C(c1ccc(OC(F)(F)F)cc1)NC2=O",
    "cAMP production activity (%)": 92
  },
  {
    "compound": "Cc1cc(C(=O)N2CCC(O)(CF)CC2)cc(C)c1/C=C/S(=O)(=O)N1CCC2(CC1)N=C(c1ccc(OCC(F)(F)F)c(Cl)c1)NC2=O",
    "cAMP production activity (%)": 85
  },
  {
    "compound": "Cc1cc(C(=O)N2CCCC2)ccc1CCS(=O)(=O)N1CCC2(CC1)N=C(c1ccc(F)c(C(F)(F)F)c1)NC2=O",
    "cAMP production activity (%)": 81
  },
  {
    "compound": "CCCCCCCCCCCC1=NC2(CCN([S@TB17](=O)(=O)CCc3c(C)cc(N(C)C(N)=O)cc3C)CC2)C(=O)N1",
    "cAMP production activity (%)": 83
  },
  {
    "compound": "O=C1NC(C2CCCCC2)=NC12CCN(S(=O)(=O)CCc1ccc(CCO)cc1)CC2",
    "cAMP production activity (%)": 57
  },
  {
    "compound": "CCCCC#CCCCC1=NC2(CCN(S(=O)(=O)/C=C/c3c(C)cc(N(C)C(N)=O)cc3C)CC2)C(=O)N1",
    "cAMP production activity (%)": 66
  },
  {
    "compound": "Cc1cc(C(=O)N(C)C)ccc1CCS(=O)(=O)N1CCC2(CC1)N=C(c1cc(C(F)(F)F)ccc1Cl)NC2=O",
    "cAMP production activity (%)": 76
  },
  {
    "compound": "Cc1cc(C2=NC3(CCN([S@TB17](=O)(=O)/C=C/c4c(C)cc(C(=O)N5CCC(C)(O)CC5)cc4C)CC3)C(=O)N2)ccc1F",
    "cAMP production activity (%)": 88
  },
  {
    "compound": "Cc1cc(CO)cc(C)c1CCS(=O)(=O)N1CCC2(CC1)N=C(C1CCC(CCC(F)(F)F)CC1)NC2=O (centres unmarked)",
    "cAMP production activity (%)": 105
  },
  {
    "compound": "Cc1cc(N(C)C(=O)N(C)C)cc(C)c1/C=C/S(=O)(=O)N1CCC2(CC1)N=C(c1cccc(OC(F)(F)F)c1)NC2=O",
    "cAMP production activity (%)": 48
  },
  {
    "compound": "CC(=O)Nc1ccc(CCS(=O)(=O)N2CCC3(CC2)N=C(C2CCC(OCCC(F)(F)F)CC2)NC3=O)c(C)c1 (centres unmarked)",
    "cAMP production activity (%)": 59
  },
  {
    "compound": "Cc1cc(C(=O)N(C)C)ccc1CCS(=O)(=O)N1CCC2(CC1)N=C(c1cccc(F)c1C)NC2=O",
    "cAMP production activity (%)": 105
  },
  {
    "compound": "Cc1cc(N(CCO)C(N)=O)cc(C)c1/C=C/S(=O)(=O)N1CCC2(CC1)N=C(c1cccc(OC(F)(F)F)c1)NC2=O",
    "cAMP production activity (%)": 54
  },
  {
    "compound": "Cc1cc(C(=O)N2CCC(C)(O)CC2)cc(C)c1/C=C/S(=O)(=O)N1CCC2(CC1)N=C(c1ccc(OCC(F)(F)C(F)(F)F)c(C(F)(F)F)c1)NC2=O",
    "cAMP production activity (%)": 90
  },
  {
    "compound": "Cc1cc(C(=O)N(C)C)ccc1-c1ccc(S(=O)(=O)N2CCC3(CC2)N=C(c2ccc(F)c(C(F)(F)F)c2)NC3=O)s1",
    "cAMP production activity (%)": 87
  },
  {
    "compound": "CC(=O)OC[C@H](CN(C(C)=O)c1ccc(CCS(=O)(=O)N2CCC3(CC2)N=C(c2ccc(F)c(C(F)(F)F)c2)NC3=O)c(C)c1)OC(C)=O",
    "cAMP production activity (%)": 59
  },
  {
    "compound": "Cc1cc2cc(C)c1CCS(=O)(=O)N1CCC3(CC1)N=C(CCCCCCCCCCC(=O)N2C)NC3=O",
    "cAMP production activity (%)": 9.4
  },
  {
    "compound": "Cc1cc(CN2C(=O)NC(C)(C)C2=O)cc(C)c1/C=C/S(=O)(=O)N1CCC2(CC1)N=C(C1CCC(C)CC1)NC2=O (centres unmarked)",
    "cAMP production activity (%)": 72
  },
  {
    "compound": "O=C1NC(CCCCCCCC(F)(F)C(F)(F)F)=NC12CCN(S(=O)(=O)CCc1cccc3c1ccn3C[C@H](O)CO)CC2",
    "cAMP production activity (%)": 142
  },
  {
    "compound": "Cc1cc(CN(CCO)C(=O)OC(C)(C)C)ccc1CCS(=O)(=O)N1CCC2(CC1)N=C(C1CCCCC1)NC2=O",
    "cAMP production activity (%)": 55
  },
  {
    "compound": "Cc1cc(C(=O)N2CCC(OC[C@H](O)CO)CC2)cc(C)c1/C=C/S(=O)(=O)N1CCC2(CC1)N=C(CCCCCCCCC(F)(F)F)NC2=O",
    "cAMP production activity (%)": 96
  },
  {
    "compound": "CSCCCCCCCC1=NC2(CCN(S(=O)(=O)/C=C/c3c(C)cc(N(C)C(N)=O)cc3C)CC2)C(=O)N1",
    "cAMP production activity (%)": 105
  },
  {
    "compound": "Cc1cc(NCCN(C)C)ccc1/C=C/S(=O)(=O)N1CCC2(CC1)N=C(C1CCCCC1)NC2=O",
    "cAMP production activity (%)": 38
  }
]

---

Each entry below lists one item and its recorded cAMP production activity (%) value.
# targetOfAssay: human PTH1 receptor (Homo sapiens, UniProt Q03431)
# Sequence (Q03431 27-593): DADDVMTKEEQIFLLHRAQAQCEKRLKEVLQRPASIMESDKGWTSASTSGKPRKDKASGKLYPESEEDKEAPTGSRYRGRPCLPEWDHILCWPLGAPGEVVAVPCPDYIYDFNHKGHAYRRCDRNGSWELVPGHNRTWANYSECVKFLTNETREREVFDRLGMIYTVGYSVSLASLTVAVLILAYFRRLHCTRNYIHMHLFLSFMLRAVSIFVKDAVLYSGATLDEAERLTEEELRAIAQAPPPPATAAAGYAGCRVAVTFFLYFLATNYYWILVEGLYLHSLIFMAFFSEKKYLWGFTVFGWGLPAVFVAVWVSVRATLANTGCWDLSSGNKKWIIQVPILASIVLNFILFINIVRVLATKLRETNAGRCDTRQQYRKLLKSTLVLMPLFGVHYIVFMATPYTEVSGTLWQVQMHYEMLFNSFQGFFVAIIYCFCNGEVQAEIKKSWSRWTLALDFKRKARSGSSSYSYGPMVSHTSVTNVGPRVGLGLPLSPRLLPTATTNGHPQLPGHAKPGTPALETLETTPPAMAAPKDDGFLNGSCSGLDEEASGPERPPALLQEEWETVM
# experimentalDetails: In vitro cAMP signal activity in HKRK-B7 cells (LLC-PK1 cells overexpressing the human PTH1 receptor)
# Assay type: cell-based
# details: HKRK-B7 cells; compound at 1×10^−3 M; cAMP produced as percentage of that produced by hPTH(1-34) at 100 nM

[
  {
    "compound": "Cc1cc(N2CCOCC2=O)cc(C)c1/C=C/S(=O)(=O)N1CCC2(CC1)N=C(C1CCC(CCC(F)(F)F)CC1)NC2=O (stereo not drawn)",
    "units": "%",
    "cAMP production activity (%)": 124
  },
  {
    "compound": "Cc1cc(N2CCOCC2=O)cc(C)c1CCS(=O)(=O)N1CCC2(CC1)N=C(C1CCC(C)CC1)NC2=O (stereo not drawn)",
    "units": "%",
    "cAMP production activity (%)": 101
  },
  {
    "compound": "CC(=O)N(C)Cc1cc(C)c(/C=C/S(=O)(=O)N2CCC3(CC2)N=C(C2CCC(CCC(F)(F)F)CC2)NC3=O)c(C)c1 (stereo not drawn)",
    "units": "%",
    "cAMP production activity (%)": 72
  },
  {
    "compound": "Cc1cc(OCCC(O)CO)ccc1/C=C/S(=O)(=O)N1CCC2(CC1)N=C(c1cccc(C(F)(F)F)c1F)NC2=O (stereo not drawn)",
    "units": "%",
    "cAMP production activity (%)": 81
  },
  {
    "compound": "CC(=O)OC[C@H](CN(C(C)=O)c1ccc(CCS(=O)(=O)N2CCC3(CC2)N=C(c2ccc(C(F)(F)F)cc2)NC3=O)c(C)c1)OC(C)=O",
    "units": "%",
    "cAMP production activity (%)": 53
  },
  {
    "compound": "Cc1cc(C(=O)N(C)C)ccc1CCS(=O)(=O)N1CCC2(CC1)N=C(c1cccc(S(C)(=O)=O)c1)NC2=O",
    "units": "%",
    "cAMP production activity (%)": 25
  }
]
